test system: LNCaP xenograft tumor; experiment: microPET/CT imaging of LNCaP xenograft tumor-bearing mice; type: in vivo; conditions: microPET/CT imaging at 1, 2, 4, 6 h
// reported Time p.i. of max. LNCaP tumor uptake per item
Numbers only; they are read as h.

{"molecule": "O=C(O)CC[C@H](NC(=O)N[C@@H](CCCCNC(=O)Nc1ccccc1OCc1cn(CCF)nn1)C(=O)O)C(=O)O", "Time p.i. of max. LNCaP tumor uptake (h)": 2}
{"molecule": "O=C(O)CC[C@H](NC(=O)N[C@@H](CCCCNC(=O)Nc1ccccc1-c1cn(CCF)nn1)C(=O)O)C(=O)O", "Time p.i. of max. LNCaP tumor uptake (h)": 2}
{"molecule": "O=C(O)CC[C@H](NC(=O)N[C@@H](CCCCNC(=O)Nc1ccc(OCc2cn(CCF)nn2)cc1)C(=O)O)C(=O)O", "Time p.i. of max. LNCaP tumor uptake (h)": 2}
{"molecule": "O=C(O)CC[C@H](NC(=O)N[C@@H](CCCCNC(=O)Nc1cccc(OCc2cn(CCF)nn2)c1)C(=O)O)C(=O)O", "Time p.i. of max. LNCaP tumor uptake (h)": 2}

Then there is this molecule:
Data point: O=C(O)CCC(NC(=O)NC(CCCCNC(=O)c1ccc(F)nc1)C(=O)O)C(=O)O (centres unmarked) [DCFPyL, reference compound] ; Time p.i. of max. LNCaP tumor uptake = 1

* * *

system: LNCaP xenograft tumor; assay: microPET/CT imaging of LNCaP xenograft tumor-bearing mice; type: in vivo; details: image derived calculation of tumor uptake (microPET/CT), at time of maximum uptake
Marks after values point to notes of the source that are not given here.
reported_endpoint: Max. LNCaP Tumor Uptake

{"compound": "O=C(O)CCC(NC(=O)NC(CCCCNC(=O)c1ccc(F)nc1)C(=O)O)C(=O)O (stereo not drawn) [DCFPyL, reference compound]", "result": "5.71 ± 0.61^c % ID/g"}
{"compound": "O=C(O)CC[C@H](NC(=O)N[C@@H](CCCCNC(=O)Nc1cccc(OCc2cn(CCF)nn2)c1)C(=O)O)C(=O)O [RPS-043]", "result": "9.04 ± 1.88^c % ID/g"}
{"compound": "O=C(O)CC[C@H](NC(=O)N[C@@H](CCCCNC(=O)Nc1cccc(-c2cn(CCF)nn2)c1)C(=O)O)C(=O)O [RPS-040]", "result": "14.30 % ID/g"}
{"compound": "O=C(O)CC[C@H](NC(=O)N[C@@H](CCCCNC(=O)Nc1ccc(-c2cn(CCF)nn2)cc1)C(=O)O)C(=O)O [RPS-041]", "result": "12.51 % ID/g"}
{"compound": "O=C(O)CC[C@H](NC(=O)N[C@@H](CCCCNC(=O)Nc1ccccc1-c1cn(CCF)nn1)C(=O)O)C(=O)O [RPS-042]", "result": "10.06 ± 1.33^c % ID/g"}

Data point: O=C(O)CC[C@H](NC(=O)N[C@@H](CCCCNC(=O)Nc1ccc(OCc2cn(CCF)nn2)cc1)C(=O)O)C(=O)O [RPS-038] ; Max. LNCaP Tumor Uptake = 8.87 ± 0.64^c % ID/g

* * *

PSMA on LNCaP cells (Homo sapiens): reported IC50 for various compounds.
Sequence (Q04609 whole entry): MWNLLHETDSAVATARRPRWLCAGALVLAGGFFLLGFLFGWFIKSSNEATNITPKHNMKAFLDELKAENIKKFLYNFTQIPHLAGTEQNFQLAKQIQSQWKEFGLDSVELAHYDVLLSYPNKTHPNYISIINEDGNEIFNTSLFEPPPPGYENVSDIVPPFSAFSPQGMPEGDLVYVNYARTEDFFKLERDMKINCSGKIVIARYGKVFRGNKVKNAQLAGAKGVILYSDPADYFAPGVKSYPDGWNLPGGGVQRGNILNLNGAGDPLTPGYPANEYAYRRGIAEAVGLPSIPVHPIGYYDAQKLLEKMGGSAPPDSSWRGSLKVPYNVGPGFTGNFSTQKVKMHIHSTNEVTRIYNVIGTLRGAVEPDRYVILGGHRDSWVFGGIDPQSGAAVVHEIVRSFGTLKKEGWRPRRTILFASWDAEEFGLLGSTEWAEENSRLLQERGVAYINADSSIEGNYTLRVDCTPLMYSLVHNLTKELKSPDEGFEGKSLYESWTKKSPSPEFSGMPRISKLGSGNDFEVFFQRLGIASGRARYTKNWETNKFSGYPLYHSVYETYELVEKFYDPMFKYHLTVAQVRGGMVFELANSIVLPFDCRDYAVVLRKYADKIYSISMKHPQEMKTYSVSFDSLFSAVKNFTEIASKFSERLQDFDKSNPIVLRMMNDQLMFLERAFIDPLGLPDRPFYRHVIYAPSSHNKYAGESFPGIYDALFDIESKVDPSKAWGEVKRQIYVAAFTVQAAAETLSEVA
Numbers only; they are read as nM.

Sample answers from the record:
{"chemical_string": "O=C(O)CC[C@H](NC(=O)N[C@@H](CCCCNC(=O)Nc1cccc(OCc2cn(CCF)nn2)c1)C(=O)O)C(=O)O", "unit_label": "nM", "number": 36.5}
{"chemical_string": "O=C(O)CC[C@H](NC(=O)N[C@@H](CCCCNC(=O)Nc1cccc(-c2cn(CCF)nn2)c1)C(=O)O)C(=O)O", "unit_label": "nM", "number": 7}

Item O=C(O)CC[C@H](NC(=O)N[C@@H](CCCCNC(=O)Nc1ccc(I)cc1)C(=O)O)C(=O)O ; assay system PSMA on LNCaP cells (Homo sapiens); IC50 reported as 0.3

Item O=C(O)CC[C@H](NC(=O)N[C@@H](CCCCNC(=O)Nc1ccccc1-c1cn(CCF)nn1)C(=O)O)C(=O)O ; assay system PSMA on LNCaP cells (Homo sapiens); IC50 reported as 10.2

Item O=C(O)CC[C@H](NC(=O)N[C@@H](CCCCNC(=O)Nc1ccccc1OCc1cn(CCF)nn1)C(=O)O)C(=O)O ; assay system PSMA on LNCaP cells (Homo sapiens); IC50 reported as 14

Item O=C(O)CC[C@H](NC(=O)N[C@@H](CCCCNC(=O)Nc1ccc(-c2cn(CCF)nn2)cc1)C(=O)O)C(=O)O ; assay system PSMA on LNCaP cells (Homo sapiens); IC50 reported as 3.2

Recorded values, source patent US12679812B2.
